Ref: ChEMBL document CHEMBL1153201

- ASSAY: Oral bioavailability in mouse at 4.8 mg/kg
- Type: ADME, organism-based
- SETUP CONDITIONS: in vivo
MEASURED PARAMETER: bioavailability (%)

{"STRUCTURE": "Cc1cc(S(=O)(=O)NC(=O)Nc2ncc(Br)s2)ccc1-c1ccc(F)nc1", "MEASURED PARAMETER": "bioavailability", "TEST VALUE": 70}

---

- ASSAY: Permeability across PAMPA membrane
- Assay type: ADME
- SETUP CONDITIONS: read-out: permeability
MEASURED PARAMETER: Papp

{"STRUCTURE": "Cc1cc(S(=O)(=O)NC(=O)Nc2ncc(Br)s2)ccc1-c1ccc(F)nc1", "MEASURED PARAMETER": "Papp", "TEST VALUE": "3.6 ×10⁻⁶ cm/s"}
